biological target: Microtubule-associated protein 1 light chain 3 beta/Epidermal growth factor receptor (Homo sapiens, UniProt P00533+Q9GZQ8); experiment: ATTEC activity at LC3B/EGFR in human HCC827 cells assessed as protein degradation by immunoblot analysis; type: cell-based
measured metric: DC50 (µM)

# compound, measured metric, scale unit, readout value
records = [
    ("COc1cc2ncnc(Nc3ccc(F)c(Cl)c3)c2cc1OCCOCCOCCOCCOCCNC(=O)COc1c(Br)cc(/C=C2\\C(=O)Nc3ccc(I)cc32)cc1Br", "DC50", "µM", 5.81),
    ("COc1cc2ncnc(Nc3ccc(F)c(Cl)c3)c2cc1OCCOCCOCCOCCNC(=O)C(C)Oc1c(Br)cc(/C=C2\\C(=O)Nc3ccc(I)cc32)cc1Br (stereo not drawn)", "DC50", "µM", 6.42),
]

a: COc1cc2ncnc(Nc3ccc(F)c(Cl)c3)c2cc1OCCOCCOCCOCCNC(=O)COc1c(Br)cc(/C=C2\C(=O)Nc3ccc(I)cc32)cc1Br
b: COc1cc2ncnc(Nc3ccc(F)c(Cl)c3)c2cc1OCCOCCNC(=O)COc1c(Br)cc(/C=C2\C(=O)Nc3ccccc32)cc1Br
Asked: Could you kindly indicate whether a or b has the higher DC50 value? Reply with the label of the item you choose.
Given back: b
(b: 4.38 µM, a: 0.98 µM)

###

system: NCI-H3255; assay: Antiproliferative activity against human NCI-H3255 cells incubated for 72 hrs by CCK8 assay; type: functional, cell-based; conditions: NCI-H3255, 72 h
pIC50: −log10 of the molar value.
measured metric: pIC50

# smiles entry, pIC50
records = [
    ("COc1cc2ncnc(Nc3ccc(F)c(Cl)c3)c2cc1OCCOCCOCCNC(=O)COc1c(Br)cc(/C=C2\\C(=O)Nc3ccc(I)cc32)cc1Br", 5.32),
    ("COc1cc2ncnc(Nc3ccc(F)c(Cl)c3)c2cc1OCCOCCOCCOCCNC(=O)COc1c(Br)cc(/C=C2\\C(=O)Nc3ccc(Cl)cc32)cc1Br", 5.31),
    ("COc1cc2ncnc(Nc3ccc(F)c(Cl)c3)c2cc1OCCCCNC(=O)COc1c(Br)cc(/C=C2\\C(=O)Nc3ccc(I)cc32)cc1Br", 5.22),
    ("COc1cc2ncnc(Nc3ccc(F)c(Cl)c3)c2cc1OCCOCCNC(=O)COc1c(Br)cc(/C=C2\\C(=O)Nc3ccccc32)cc1Br", 6.04),
    ("COc1cc2ncnc(Nc3ccc(F)c(Cl)c3)c2cc1OCCOCCOCCOCCOCCNC(=O)COc1c(Br)cc(/C=C2\\C(=O)Nc3ccc(I)cc32)cc1Br", 5.38),
]

I: COc1cc2ncnc(Nc3ccc(F)c(Cl)c3)c2cc1OCCOCCOCCOCCNC(=O)COc1c(Br)cc(/C=C2\C(=O)Nc3ccc(I)cc32)cc1Br
II: COc1cc2ncnc(Nc3ccc(F)c(Cl)c3)c2cc1OCCOCCNC(=O)COc1c(Br)cc(/C=C2\C(=O)Nc3ccc(Br)cc32)cc1Br
Asked: Could you kindly indicate whether I or II has the higher pIC50 value? Reply with the label of the item you choose.
Given back: I

###

test system: HCC827; assay: Antiproliferative activity against human HCC827 cells incubated for 72 hrs by CCK8 assay; type: functional, cell-based; conditions: HCC827, 72 h
measured metric: IC50 (nM)

Known results for compounds:
# smiles entry, measured metric, readout value
records = [
    ("COc1cc2ncnc(Nc3ccc(F)c(Cl)c3)c2cc1OCCOCCOCCOCCNC(=O)COc1c(Br)cc(/C=C2\\C(=O)Nc3ccccc32)cc1Br", "IC50", 1720),
    ("COc1cc2ncnc(Nc3ccc(F)c(Cl)c3)c2cc1OCCOCCOCCNC(=O)COc1c(Br)cc(/C=C2\\C(=O)Nc3ccc(I)cc32)cc1Br", "IC50", 2780),
]

I: COc1cc2ncnc(Nc3ccc(F)c(Cl)c3)c2cc1OCCCCCCCCNC(=O)COc1c(Br)cc(/C=C2\C(=O)Nc3ccc(I)cc32)cc1Br
II: COc1cc2ncnc(Nc3ccc(F)c(Cl)c3)c2cc1OCCOCCOCCOCCNC(=O)COc1c(Br)cc(/C=C2\C(=O)Nc3ccc(Br)cc32)cc1Br
III: COc1cc2ncnc(Nc3ccc(F)c(Cl)c3)c2cc1OCCOCCOCCNC(=O)COc1c(Br)cc(/C=C2\C(=O)Nc3ccc(Cl)cc32)cc1Br
Asked: Please order the records by their reported IC50, lowest number first. Thanks in advance for listing the labels in the requested order.
Given back: I, II, III

###

system: HCC827; assay: Antiproliferative activity against human HCC827 cells incubated for 72 hrs by CCK8 assay; type: functional, cell-based; conditions: HCC827, 72 h
pIC50: −log10 of the molar value.
measured metric: pIC50

# smiles entry, readout value
data = [
    ("COc1cc2ncnc(Nc3ccc(F)c(Cl)c3)c2cc1OCCOCCNC(=O)COc1c(Br)cc(/C=C2\\C(=O)Nc3ccc(I)cc32)cc1Br", 5.89),
    ("COc1cc2ncnc(Nc3ccc(F)c(Cl)c3)c2cc1OCCOCCOCCNC(=O)COc1c(Br)cc(/C=C2\\C(=O)Nc3ccc(C)cc32)cc1Br", 6.06),
    ("COc1cc2ncnc(Nc3ccc(F)c(Cl)c3)c2cc1OCCOCCOCCOCCOCCNC(=O)COc1c(Br)cc(/C=C2\\C(=O)Nc3ccc(I)cc32)cc1Br", 5.94),
    ("COc1cc2ncnc(Nc3ccc(F)c(Cl)c3)c2cc1OCCOCCOCCOCCNC(=O)COc1c(Br)cc(/C=C2\\C(=O)Nc3ccc(I)cc32)cc1Br", 6.56),
    ("COc1cc2ncnc(Nc3ccc(F)c(Cl)c3)c2cc1OCCCCCCCCCCNC(=O)COc1c(Br)cc(/C=C2\\C(=O)Nc3ccc(I)cc32)cc1Br", 6.01),
]

a: COc1cc2ncnc(Nc3ccc(F)c(Cl)c3)c2cc1OCCCCNC(=O)COc1c(Br)cc(/C=C2\C(=O)Nc3ccc(I)cc32)cc1Br
b: COc1cc2ncnc(Nc3ccc(F)c(Cl)c3)c2cc1OCCOCCOCCNC(=O)COc1c(Br)cc(/C=C2\C(=O)Nc3ccc(Br)cc32)cc1Br
Asked: Could you kindly indicate whether a or b has the higher pIC50 value? Reply with the label of the item you choose.
Given back: a

P: COc1cc2ncnc(Nc3ccc(F)c(Cl)c3)c2cc1OCCOCCNC(=O)COc1c(Br)cc(/C=C2\C(=O)Nc3ccc(Cl)cc32)cc1Br
Q: COc1cc2ncnc(Nc3ccc(F)c(Cl)c3)c2cc1OCCOCCNC(=O)COc1c(Br)cc(/C=C2\C(=O)Nc3ccccc32)cc1Br
Asked: # return whichever of P and Q has the smaller pIC50 Reply with the label of the item you choose.
Given back: P
(P: 5.23, Q: 5.94)

###

test system: NCI-H3255; test: Antiproliferative activity against human NCI-H3255 cells incubated for 72 hrs by CCK8 assay; type: functional, cell-based; conditions: NCI-H3255, 72 h
measured metric: IC50 (nM)

# smiles entry, measured metric, scale unit, readout value
measured = [
    ("COc1cc2ncnc(Nc3ccc(F)c(Cl)c3)c2cc1OCCOCCOCCOCCNC(=O)COc1c(Br)cc(/C=C2\\C(=O)Nc3ccc(C)cc32)cc1Br", "IC50", "nM", 1130),
    ("COc1cc2ncnc(Nc3ccc(F)c(Cl)c3)c2cc1OCCOCCOCCOCCNC(=O)COc1c(Br)cc(/C=C2\\C(=O)Nc3ccccc32)cc1Br", "IC50", "nM", 1430),
    ("COc1cc2ncnc(Nc3ccc(F)c(Cl)c3)c2cc1OCCCCCCCCNC(=O)COc1c(Br)cc(/C=C2\\C(=O)Nc3ccc(I)cc32)cc1Br", "IC50", "nM", 6500),
]

I: COc1cc2ncnc(Nc3ccc(F)c(Cl)c3)c2cc1OCCOCCNC(=O)COc1c(Br)cc(/C=C2\C(=O)Nc3ccc(I)cc32)cc1Br
II: COc1cc2ncnc(Nc3ccc(F)c(Cl)c3)c2cc1OCCOCCOCCNC(=O)COc1c(Br)cc(/C=C2\C(=O)Nc3ccc(Cl)cc32)cc1Br
Asked: Could you kindly indicate whether I or II has the higher IC50 value? Reply with the label of the item you choose.
Given back: I
(I: 3100 nM, II: 2000 nM)

I: COc1cc2ncnc(Nc3ccc(F)c(Cl)c3)c2cc1OCCOCCOCCOCCNC(=O)COc1c(Br)cc(/C=C2\C(=O)Nc3ccc(Br)cc32)cc1Br
II: COc1cc2ncnc(Nc3ccc(F)c(Cl)c3)c2cc1OCCOCCOCCNC(=O)COc1c(Br)cc(/C=C2\C(=O)Nc3ccccc32)cc1Br
III: COc1cc2ncnc(Nc3ccc(F)c(Cl)c3)c2cc1OCCOCCNC(=O)COc1c(Br)cc(/C=C2\C(=O)Nc3ccc(Cl)cc32)cc1Br
Asked: Please order the records by their reported IC50, lowest number first. Thanks in advance for listing the labels in the requested order.
Given back: II, I, III
(II: 908 nM, I: 2540 nM, III: 4580 nM)

A: COc1cc2ncnc(Nc3ccc(F)c(Cl)c3)c2cc1OCCOCCOCCNC(=O)COc1c(Br)cc(/C=C2\C(=O)Nc3ccc(C)cc32)cc1Br
B: COc1cc2ncnc(Nc3ccc(F)c(Cl)c3)c2cc1OCCOCCOCCNC(=O)COc1c(Br)cc(/C=C2\C(=O)Nc3ccc(Br)cc32)cc1Br
Asked: Could you kindly indicate whether A or B has the higher IC50 value? Reply with the label of the item you choose.
Given back: B
